Test system: SK-MEL-28 melanoma
assay_details: NCI-60 one-dose screen, 48 h
test_context: 10 µM unless noted
Experimental: Growth inhibition of the SK-MEL-28 human tumor cell line is measured as a screen for anti-cancer activity. Cells are grown in 96 well plates and exposed to the test compound for 48 hours. Compounds are tested at a single concentration, which is 10^-5 M for most compounds. The reported endpoint is percent growth (GI% or GIPRCNT), where numbers from 0 - 100% represent growth inhibition, and numbers from -100% - 0 represent cell death. For example, a value of 40 represents 60% growth inhibition. […]
Compounds without any hit were thinned out: in the full panel of roughly 83,000, 20% have a hit. The source made the active and inactive calls. The calls were made as follows: active = growth percent below 10; inactive = the rest.
Classes used: True = active, False = inactive

• O=C(CCCC(=O)Nc1ccc(Cn2nnc3cc(Cl)c(Cl)cc32)cc1)Nc1ccc(CN2N=NC3C=C(Cl)C(Cl)=CC32)cc1 (stereo not drawn) = False
• O=S(=O)(O)c1ccc2c(c1)Sc1cc(S(=O)(=O)O)ccc1O2 = False
• COC(=O)c1ccc2[nH]c(O)c(C(=Nc3ccc(N(C)C(=O)CN4CCN(C)CC4)cc3)c3ccc(OC)cc3)c2c1 = False
• O=C(/C=C1\C(=O)N(Cc2ccc([N+](=O)[O-])cc2)c2ccccc21)c1ccc(OCCN2CCCC2)cc1 = False
• COc1ccc2c(c1)/C(=C1/S/C(=N/c3nnc(C)s3)NC1=O)C(=O)N2Cc1ccc(Br)cc1 = False
• CNc1nc2ncn(C)c2c(=O)[nH]1 = False
• COc1ccc(C(=O)NCCNc2nccc(-c3c(-c4ccc(F)cc4)nc4sccn34)n2)cc1 = False
• COC(=O)[C@H](Cc1cn(C)cn1)NC(=O)[C@@H](NC(=O)Nc1cc(C(F)(F)F)cc(C(F)(F)F)c1)C(C)(C)C = True
• O=C(O)/C(Br)=C/c1c[nH]c2ccc(Br)cc12 = False
• CCCCCCCCCCCCCCCCC(=O)O.CCCCCCCCCCCCCCCCCC(=O)O.CCCCCCCCCCCCCCCCCC(=O)O.CCCCCCCCCCCCCCCCCC(=O)O.CCCCCCCCCCCCCCCCCC(=O)O.CO[CH-]OC12COC1CC(O)C1(C)C(O)C(OC(C)O)C3=C(C)C(OC(=O)C(O)C([NH-])c4ccccc4)CC(O)(C(OC(=O)c4ccccc4)C21)C3(C)C.[Cu+].[Zn].[Zn].[Zn].[Zn].[Zn] (stereo not drawn) = False
• CCOC(=O)c1ccc2n1CCCc1cnc(NC(C)=O)nc1-2 = False
• O=c1c2c(c3ccccc3n1-c1ccccc1)NC(=S)NC2c1ccc(Cl)cc1 (stereo not drawn) = False
• COc1cc([C@@H]2c3cc4c(cc3[C@H](O)[C@H]3COC[C@@H]23)OCO4)cc(OC)c1OC = False
• CCOc1ccc(/C=N/NC(=O)c2cccc3ccccc23)cc1OCC = False
• BrCCCOc1ccc(Oc2ccc(OCCCBr)cc2)cc1 = False
• Nc1ccc(S(=O)(=O)Nc2cc(F)cc(F)c2)cc1 = False
• COc1cc(-c2nn(-c3ccc(NC(=O)c4ccc(Cl)c(Cl)c4)cc3)cc2-c2ccncc2)ccc1Cl = False
• CC([C@H]1CCC2C3CCC4C[C@@H](N)CC[C@]4(C)C3CC[C@@]21C)N(C)C (stereo partly drawn) = True
• COc1cc(-c2nc(/C=C3/C(=O)Nc4ccccc43)c3ccccn23)cc(OC)c1OC = False
• CC(C)(C)C(=O)OCOP(=O)(OCOC(=O)C(C)(C)C)C1CC(O)N(O)C1=O (stereo not drawn) = True
• COc1ccc(-c2nc(N)n(C(=S)Nc3ccccc3)n2)cc1 = False
• COC(=O)c1ccc2[nH]c(O)c(C(=Nc3ccc(N(C)C(=O)CN4CCN(C)CC4)cc3)c3ccc(N)cc3)c2c1 = False
• CC1=C[C@@H]2c3c(c(O)c(O)c4oc5cc(O)cc(O)c5c(=O)c34)[C@@H](c3cc(O)c(O)c4oc5cc(O)cc(O)c5c(=O)c34)[C@@H]2C(C)(C)C1 = True
